- test-method-notes: Protein binding in dog plasma
- Type: ADME, cell-free, Canis lupus familiaris
- experimental-conditions: read-out: PPB (converted)
reported-property: fraction unbound

Qu. Reported fraction unbound for CN1CCC[C@@H](NC(=O)Cn2nc(C(C)(C)O)n3c(cc4sc(Cl)cc43)c2=O)C1 : what is it?
Ans. 0.17

###

- target-system: Cytochrome P450 2D6 (Homo sapiens, UniProt P10635)
- Sequence (P10635 whole entry): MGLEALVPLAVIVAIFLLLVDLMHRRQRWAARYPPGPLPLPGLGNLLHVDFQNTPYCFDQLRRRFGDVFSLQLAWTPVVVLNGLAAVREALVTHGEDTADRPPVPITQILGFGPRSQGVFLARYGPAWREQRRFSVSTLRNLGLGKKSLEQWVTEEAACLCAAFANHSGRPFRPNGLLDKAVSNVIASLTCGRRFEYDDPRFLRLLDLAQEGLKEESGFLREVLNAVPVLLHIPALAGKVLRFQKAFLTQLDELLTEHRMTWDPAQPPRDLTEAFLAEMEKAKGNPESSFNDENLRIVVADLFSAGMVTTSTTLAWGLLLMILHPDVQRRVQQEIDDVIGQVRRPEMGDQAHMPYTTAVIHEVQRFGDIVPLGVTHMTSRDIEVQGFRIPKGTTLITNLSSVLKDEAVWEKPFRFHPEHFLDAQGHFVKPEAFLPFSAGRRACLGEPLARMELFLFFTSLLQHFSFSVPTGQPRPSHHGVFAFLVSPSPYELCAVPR
pIC50: −log10 of the molar value.
reported-property: pIC50

Qu. Reported pIC50 for CN1CCC[C@@H](NC(=O)Cn2nc(C(C)(C)O)n3c(cc4sc(Cl)cc43)c2=O)C1 : what is it?
Ans. < 4.60

###

- test-method-notes: Drug concentration in blood of C57BL/6 mouse model of acute peritonitis at 100 mg/kg, po preadministered with compound for 1 hrs followed by LPS stimulation for 2 hrs and measured 15 mins after ATP addition by HPLC-MS/MS analysis
- Assay type: ADME, organism-based
- experimental-conditions: whole blood, read-out: Ct
reported-property: concentration at 3.25 h (µM)
Express the result in µM but write the number alone.

Qu. Reported concentration at 3.25 h for CN1CCC[C@@H](NC(=O)Cn2nc(C(C)(C)O)n3c(cc4sc(Cl)cc43)c2=O)C1 : what is it?
Ans. 3.67

###

- test-method-notes: Apparent permeability from apical to basolateral side in MDCK cells by high-throughput assay
- Assay type: ADME, cell-based, Canis lupus familiaris
- experimental-conditions: dog
# strict inequality: Papp A→B < 20 ×10⁻⁶ cm/s yields true (1), everything else yields false (0)

Some solved cases for reference:
CC(C)c1nn(CC(=O)N[C@@H]2CCCN(C)C2)c(=O)c2cc3sc(Cl)cc3n12 :: true (1)
CCc1nn(CC(=O)Nc2cccc(C(C)=O)c2)c(=O)c2cc3sccc3n12 :: false (0)
CCc1nn(CC(=O)NC)c(=O)c2cc3sccc3n12 :: false (0)
CCc1nn(CC(=O)Nc2cccnc2)c(=O)c2cc3sccc3n12 :: false (0)
CCc1nn(CC(=O)Nc2ccncn2)c(=O)c2cc3sccc3n12 :: false (0)
CCc1nn(CC(=O)Nc2cccc(O)c2)c(=O)c2cc3sccc3n12 :: true (1)
CCc1nn(CC(=O)Nc2ccccc2)c(=O)c2cc3sccc3n12 :: false (0)
CCc1nn(CC(=O)NC2CCCNC2)c(=O)c2cc3sccc3n12 (stereo not given) :: true (1)

Qu. Threshold test, Papp A→B < 20 ×10⁻⁶ cm/s: CC(C)c1nn(CC(=O)N[C@@H]2CCCNC2)c(=O)c2cc3sc(Cl)cc3n12
Ans. true (1)

Qu. Same question for CCc1nn(CC(=O)N(C)c2ccccc2)c(=O)c2cc3sccc3n12 please.
Ans. true (1)

###

- test-method-notes: Equilibrium solubility of compound in DMSO at pH 6.8 by shake flask method
- Type: physicochemical
reported-property: solubility

Consider the following illustrative entries.
CN1CCC[C@@H](NC(=O)Cn2nc(C(C)(C)O)n3c(cc4sc(Cl)cc43)c2=O)C1 :: > 1000 µM
CC(C)c1nn(CC(=O)N[C@@H]2CCCN(C)C2)c(=O)c2cc3sc(Cl)cc3n12 :: > 1000 µM

Qu. Reported solubility for CC(C)c1nn(CC(=O)N[C@@H]2CCCN(C)C2)c(=O)c2cc3scnc3n12 : what is it?
Ans. > 1000 µM

Qu. Same question for CCc1nn(CC(=O)NC2CCCNC2)c(=O)c2cc3sccc3n12 (stereo unspecified) please.
Ans. > 1000 µM

Qu. Same question for CC(C)(O)c1nn(CC(=O)N[C@H]2C[C@@](C)(O)C2)c(=O)c2cc3sc(Cl)cc3n12 please.
Ans. 36 µM

Qu. Same question for CC(C)c1nn(CC(=O)N[C@@H]2CCCNC2)c(=O)c2cc3sc(Cl)cc3n12 please.
Ans. > 1000 µM
